Tested on: SW-620 colon
Assay: NCI tumour cell line growth inhibition, 48 h
recorded_endpoint: TGI

These solved cases illustrate the format of a correct answer.
NS(=O)(=O)c1ccc(N2N=C3c4ccccc4CC3C2c2ccc(Cl)cc2)cc1 (stereo unspecified): 29.8 µM
COc1cc(/C=C2\COc3ccc(O)c(O)c3C2=O)cc(OC)c1: 4 µM
CCOC(=O)C1=c2[nH]c3cccc4cccc(c43)n2C=C(C(C)=O)C1CC(C)=O (stereo unspecified): > 100 µM
ClC1=C(Cc2ccccc2)Cc2ccc3c(c21)CCC3: > 100 µM
Nc1nc2nc[nH]c2c(=O)[nH]1: > 100 µM

Hey, quick one: what's TGI for each of these?
1. OCC12C3C4C1C1C2C3C41CO (stereo unspecified)
2. CCOC(=O)[C@@]12CCC(C1=O)[C@](C)(O)C[C@@H]2c1ccccc1
3. CCCc1nc2c(C)cc(-c3nc4ccccc4n3C)cc2n1Cc1ccc(-c2ccccc2C(=O)O)cc1
4. O=[n+]1c2ccccc2n([O-])c2cc(Br)ccc21
5. O=C(Nc1nc2ncn(CC(COc3ccccc3)OC(=O)c3ccccc3)c2c(=O)[nH]1)c1ccccc1 (stereo unspecified)
6. NS(=O)(=O)c1ccc(CNc2nc(-c3cccs3)nc3ccc(I)cc23)cc1

["> 100 µM", "> 100 µM", "> 100 µM", "75.7 µM", "> 100 µM", "83.8 µM"]

###

System: SF-295 CNS
Experiment: NCI tumour cell line growth inhibition, 48 h
Assign log10 of TGI to each entry below.
// units: µM (pre-log); metric: TGI; scale: log10

Past entries and their recorded results:
C=C1C(=O)O[C@H]2[C@H]1CC/C(COC(=O)NCc1c[nH]c3ccc(Cl)cc13)=C\CC[C@@]1(C)O[C@@H]21: 0.61
CCCN(CCC)c1ccc(/C=N/NC(=O)c2cccnc2)c(Cl)c1: 1.22
CC1=C(C(=O)NCc2ccccc2)C(c2ccccc2[N+](=O)[O-])C(C(=O)NCc2ccccc2)=C(C)N1: 1.40
COc1ccc2oc(C(=O)N3CC(CCl)c4ccc([N+](=O)[O-])cc43)cc2c1 (stereo not given): 1.84
ClC1=C(Cc2ccccc2)Cc2ccc3c(c21)CCC3: 1.96

I'm hoping you can list log10 of TGI for every molecule here, please.
1. N=c1ccc2c(c1)[nH]c1c3ccccc3[nH]c3cccc2c31
2. COc1cccc(N2C(=O)CSC2c2cc(OC)c(OC)c(OC)c2)c1 (stereo not given)
3. NS(=O)(=O)c1ccc(CCN=C=S)cc1
4. CC(C)NC(=O)OCc1c(COC(=O)NC(C)C)n(C)c2c1ccc1ccccc12

1: 0.42; 2: 1.99; 3: 1.44; 4: 1.24

###

Test system: ACHN renal
Assay: NCI tumour cell line growth inhibition, 48 h
recorded_endpoint: TGI

# annotated cases, reported TGI shown
CCOP(=O)(OCC)/C(C#N)=C/c1cccn1CC(C)C: > 100 µM
COc1cccc(N2C(=O)CSC2c2cc(OC)c(OC)c(OC)c2)c1 (stereo unspecified): > 100 µM
NS(=O)(=O)c1ccc(CCN=C=S)cc1: 3.65 µM
CCOC(=O)CCC(NC(=O)Cc1ccc(Oc2nc3ccccc3nc2-c2cccs2)cc1)C(=O)OCC (stereo unspecified): 18.3 µM
CCCN(CCC)c1ccc(/C=N/NC(=O)c2cccnc2)c(Cl)c1: > 88.1 µM
C[C@@H]1C=C2C(=O)O[C@@H]3CC[C@H](C1)[C@]23O: 16.9 µM
Cc1cccc(-c2cc(=S)c3cc(N4CCCC4)ccc3[nH]2)c1: > 100 µM
CCOC(=O)c1c(-c2ccc(OC)cc2)c(C#N)c(=S)n(C2OC(CO)C(O)C(O)C2O)c1-c1ccccc1 (stereo unspecified): > 100 µM
Cc1[nH]c(=O)[nH]c(=O)c1CO: > 100 µM
FC(F)(Sc1ccccc1)c1nc2ccccc2o1: > 100 µM

Can you share its TGI? I mean this molecule: O=C(OC(=C(c1ccccc1)c1ccccc1)N1CCCC1=S)C(c1ccccc1)c1ccccc1
> 10 µM

###

Test system: MDA-MB-231 breast
Assay: NCI tumour cell line growth inhibition, 48 h
recorded_endpoint: GI50

NS(=O)(=O)c1ccc(CCN=C=S)cc1: 2.03 µM
NCCC(O)(P(=O)(O)O)P(=O)(O)O: > 100 µM
COc1ccc2c(c1)CCC1C2CC[C@]2(C)/C(=N/OC(=O)Cc3ccccc3)CCC12 (stereo not given in full): 17.3 µM
CCC(=C/[C@H](C)C/C=C/C(C)=C/[C@@H](C)C(=O)[C@@H](C)[C@H](O)[C@@H](C)CC)/C=C/[C@H]1OC(=O)C=C[C@H]1C: < 0.01 µM

Let us move to another entry and its GI50.
Which GI50 is reported for this compound? Cc1[nH]c(=O)[nH]c(=O)c1CO
> 100 µM

###

Tested on: K-562 leukemia
Test: NCI tumour cell line growth inhibition, 48 h
Consider the following compounds; for each one, report its TGI.

I'm hoping you can list TGI for every compound here, please.
1. O=C1C=C(NCCc2cc(Br)c(O)c(Br)c2)C(=O)c2ncccc21
2. CC(C)NC(=O)OCCN=C1c2ccccc2CCc2ccccc21
3. CC(C)[C@](O)(C(=O)OCC1CC[N+]2([O-])CC[C@@H](O)C12)[C@H](C)O (some centres undefined)
4. NCCNC(=S)S
5. CC(C)=CC(=O)Cc1nc2cc(C)c(C)cc2[nH]c1=O
6. CC1=C(C(=O)NCc2ccccc2)C(c2ccccc2[N+](=O)[O-])C(C(=O)NCc2ccccc2)=C(C)N1
7. Cc1n[nH]c(=O)n1/N=C/c1c[nH]c2ccccc12
8. O=C(CCCl)NNC1=NCCN1

10 µM
59 µM
> 375 µM
95.1 µM
> 100 µM
24.8 µM
> 100 µM
> 100 µM

Hey, quick one: what's TGI for each of these?
1. NCCC(O)(P(=O)(O)O)P(=O)(O)O
2. OCC12C3C4C1C1C2C3C41CO (centres undefined)
3. COC1=CC(c2ccc[nH]2)=N/C1=C\c1ccc[nH]1
4. CC(C)(C)c1ccc(C(O)c2ccc(C(C)(C)C)cc2)cc1

["> 100 µM", "> 100 µM", "> 32.7 µM", "33.3 µM"]

// batch mode: one TGI value per listed entry
1. O=C(c1cccnc1)N1N=C(c2ccc(Cl)cc2)CC1(O)c1cc(F)c(Cl)cc1Cl (centres undefined)
2. COC(=O)C1(Cc2ccccc2)Cc2ccc3c(c2C1=O)CCC3 (centres undefined)
3. O=C1C(=O)C(Br)(Br)C(Br)=C1Br
4. COc1cccc(/C=C2\CCCCCC2=O)c1
5. Nc1c(C(=O)Nc2ccccc2Cl)sc2nc3c(cc12)CCCCCC3
6. Oc1ccc(Cn2c(-c3ccc(O)c(O)c3)nc3ccccc32)cc1O

["> 100 µM", "> 100 µM", "41.3 µM", "> 100 µM", "> 100 µM", "55.9 µM"]

Batch: TGI for all items listed.
1. COc1cc(-c2cc(-c3nc4ccc(Cl)cc4[nH]3)[nH]n2)cc(OC)c1OC
2. C1=Cc2nc1c(-c1ccncc1)c1ccc([n-]1)c(-c1ccncc1)c1nc(c(-c3ccncc3)c3ccc([n-]3)c2-c2ccncc2)C=C1.[Zn+2]
3. O=C(CCc1cccc(O)c1)NCCc1ccc(O)cc1
4. O=C(COc1ccccc1)NS(=O)(=O)c1ccccc1
5. CCOP(=O)(C=C=C(C)C)OCC
6. c1ccc2c(c1)Nc1nc3nonc3nc1N2
7. CNC(=O)CCCN(C)C(=O)CCCCC(=O)N(C)C

1. > 100 µM
2. > 100 µM
3. > 100 µM
4. > 100 µM
5. > 100 µM
6. > 100 µM
7. > 100 µM

###

What TGI was measured for each of the following?
System: OVCAR-8 ovarian
Experiment: NCI tumour cell line growth inhibition, 48 h
One number for each entry, in µM.

Illustrative cases are given below, each with its answer.
C[C@@H]1C=C2C(=O)O[C@@H]3CC[C@H](C1)[C@]23O: 28.6
O=C(/C=C\c1ccc(Cl)cc1Cl)c1cccs1: 24.8

Query TGI on OVCAR-8 ovarian for CCCCCCCC[N+](C)(CCCCCCCC)CCCCCCCC
1.46

###

Tested on: CCRF-CEM leukemia
Experiment: NCI tumour cell line growth inhibition, 48 h
Exercise: for every item that follows, state its recorded TGI.

Quick batch: TGI for everything below.
1. CCOC(=O)CCC(NC(=O)c1ccc(OCc2nc3ccccc3n3cccc23)cc1)C(=O)OCC (stereo not drawn)
2. O=C1CC2(CCNCC2)C(=O)N1N1CCCC1
3. COC(=O)[C@]1(C)CCC[C@@]2(C)C1CCC1=CC3(C(C)C)CCC12OO3 (stereo partly drawn)

> 100 µM
> 100 µM
> 100 µM
